# EC50 per entry
biological target: mGluR4 (UniProt Q14833); experiment: mGluR4 potentiation assay: increase in response to an EC20 concentration of agonist (species not given); settings: EC50 for potentiation of mGluR4; table does not state human or rat
propertyName: EC50

                                   molecule   result
0  Cc1nn(C(C)C)c2ncc(Nc3n[nH]c4cccnc34)cc12 [Example 270]  > 30 µM
1  CCC(C)n1nc2ccc(Nc3n[nH]c4cccnc34)cc2c1C (stereo not shown) [Example 105]  > 10 µM
2  Cc1nn(C2CCCC2)c2ncc(Nc3n[nH]c4cccnc34)cc12 [Example 254]  > 10 µM
3  Cn1nc(C2CC2)c2ccc(Nc3n[nH]c4c3CC(F)(F)CC4)cc21 [Example 14]  > 10 µM

Taken from patent US10526323B2.
